Reported % Signal Inhibition Rep1 values for the following binders.
- measurementTarget: T1, canine OX40L, full length membrane form, expressed on HEK293 cells (canine)
- T1 chain: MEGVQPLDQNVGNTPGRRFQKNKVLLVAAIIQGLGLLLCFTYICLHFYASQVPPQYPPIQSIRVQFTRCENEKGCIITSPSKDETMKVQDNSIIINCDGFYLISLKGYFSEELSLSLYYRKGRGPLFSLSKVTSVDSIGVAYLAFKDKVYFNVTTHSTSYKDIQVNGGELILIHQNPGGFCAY
- assayName: cell-based or functional assay
recordedEndpoint: % Signal Inhibition Rep1 (%)

- PMX045 (antibody, V domains shown, also called PMX45) VH: EVQLVESGGDLVKPGGSLRLSCVASGFTFSSYHMTWVRQAPGKGLQWVAYITSGGITTSYADAVKGRFTISRDNAKNTLYLQMSSLRAEDTAMYYCARDLVLLLGGADYWGQGTLVTVSS VL: SYELTQPPSVNVTLRETAHITCGGDSIGRKYVQWIQQNPGQAPVVIIYKDSNRPTGIPERFSGANSGNTATLTISGALAEDEADYYCQVGDSGTKAVFGGGTHLTVL: 79.9
- PMX101 (antibody, V domains shown) VH: EVQLVESGGDLVRPGGSLRLSCVASGFTFSNYHMSWVRQAPGKGLQWVAFINSGGSSTSYADAVRGRFTISRDYAKNTLYLQMNSLRAEDTAVYYCASGSIWTHFDYWGQGTLVTVSS VL: SFVLTQLPSVSVTLRQTARITCGGDIIGSKSVYWFQQKLGQAPILIIYRDDNRPTGIPERFSGASSGNTATLIISGALAEDEAHYYCQVWDSSSKAMFGGGTHLTVL: 62.6
- PMX035 (antibody, V domains shown, also called PMX35) VH: EVQLVESGGDLVKPGGSLRLSCVASGFTFSNFEMYWVRQAPGKGLEWVARIYKSGSTTYHSERVKGRFTISKDSATNMAFLQMNSLRAEDTAVYYCTSASSTGWRFDYWGQGTLVTVSS VL: SYVLTQLPSVSVTLRQTARITCGGDSIGRKNVCWFQQKLGQAPVLIIYDDNSRPSGIPERFSGANSGNTATLTISGALAEDEADYYCQVWDSSTGIFGGGTHLTVL: 85.3
- PMX042 (antibody, V domains shown, also called PMX42) VH: EVQLVESGGDLVKPGGSLRLSCVASGFTFSSYHMSWVRQAPGKGLQWVAYITSGGSTTSYADAVKGRFTISRDNAKNTLYLQMDSLRADDTAVYYCASDLVLLLGGADYWGQGTLVTVSS VL: SYELTQPPSVNVTLRETAHITCGGDSIGRKYVQWIQQHPGQAPVVIIYKDYNRPTGIPERFSGANSGNTATLTISGALAEDEADYYCQVGDSGTKAVFGGGTHLTVL: 77.8
- PMX051 (antibody, V domains shown, also called PMX51) VH: EVQLVESGGDLVKPGGSLRLSCVASGFSFNTYHMNWVRQAPGKGLHWVAFINSDGGGTSYADTVKGRFTISRDYAKNTLYLQMNSLRAEDTAVYYCVSGSIWTHFDYWGQGTLVTVSS VL: SYVLTQLPSVSMTLRQTAHITCGGDIIGSKSVYWYQQKLGQAPVLIIYRDTNRPTGIPERFSGASSGNTATLTISGALAEDEADYYCQVWDSSTQAVFGGGTHLTVL: 82.2
- PMX086 (antibody, V domains shown) VH: EVQLVESGGDLVKPGGSLRLSCVASGFTFSSYHMSWVRQAPGKGLQWVAFINSAESSTTYADAVKGRFTISRDNAKNTLYLQMNSLRAEDTAVYYCAGGYIWTHFDYWGQGTLVTVSS VL: SYVLTQLPSVSVTLRQTARITCGGDIIGSKSVYWYQQNLGQAPVLIIYRDTNRPTGIPERFSGASSGNTATLTISGALAEDEADYYCQVWDSSTSVFGGGTHLTVL: 5.85
- PMX036 (antibody, V domains shown, also called PMX36) VH: EVQLVESGGDLVKPGGSLRLSCVASGFTFSSYHMSWVRQAPGKGLQWVAYITSGGRTTSYADAVKGRFTISRDNAKNTLYLQMNSLRAEDTAVYYCASDLVLVLGGADYWGQGTLVTVSS VL: SYELTQPPSVNVTLRETAHITCGGDSIGRKYVQWIQQNPGQAPVVIIYKDTNRPTGIPERFSGANSGNTATLTISGALAEDEADYYCQVGDSGTKAVFGGGTHLTVL: 87.6
- PMX037 (antibody, V domains shown, also called PMX37) VH: EVQLLESGGDLVKPGGSLRLSCVASGFTFSNYEMYWVRQAPGKGLEWVARFYESGSTTYSAEAVPGRFTISRDNAKNMAYLQMNSLRAEDTAVYYCASASSSSWRFDYWGQGTLVTVSS VL: SYVLTQLPSVSVTLGQTARITCGGDSIGSKNVYWFQQKLGQAPVLIIYDDRSRPSGIPERFSGANSGNTATLTISGALAEDEADYYCQVWDSSTGVFGGGTHLTVL: 85.7
- PMX052 (antibody, V domains shown, also called PMX52) VH: EVQLVESGGDLVKPAGSLRLSCVASGFTFSSYSMSWVRQAPEKGLQLVAGISGGGSRTYYSDAVKGRFTISRDNAKNTVYLQMNSLRAEDTAIYYCAKDGGSWAGYNFDYWGQGTLVTVSS VL: DIVMTQTPPSLSVSPRETASISCKASQSLLHSDGSTYLDWYLQKPGQSPQLLIYLGSNRFTGVSDRFSGSGSGTEFTLRISRVEANDTGVYYCGQGTQLPYTFGQGTELEIK: 15.7
- PMX294 (antibody, V domains shown) VH: EVQLVESGGDLVKPEGSLRLSCAVSGFTFSSNDMSWVRQAPGKGLQWVAYITYDGRSTSYTDIVKGRFTVSRDNAKNTLYLQMNSLRSEDAAVYYCAKAQRGWFFDYWGQGTLVTVSS VL: SYVLTQLPSVSVTLRQTARITCGGDSIGSKNVYWYQQKLGQAPVLIIYDDDSRPSGIPERISGANSGNTATLTISGALAEDEADYYCQVWDSSTGVFGGGTHLTVL: 94

Just for reference, patent US20250340659A1 is where these values come from.
